# measured-on: gp41 six-helix bundle formation between N36 and C34 (Human immunodeficiency virus type 1 group M subtype B)
# Sequence (P04578 546-581): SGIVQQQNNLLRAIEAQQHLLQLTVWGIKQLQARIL
measure-name: pIC50
# reply with the number alone; pIC50 is -log10 of concentration in mol/L

Quick one: pIC50 for O=C(O)c1cccc(-c2ccc(/C=C3\SC(=S)N(c4cccc(C(F)(F)F)c4)C3=O)o2)c1 [NB154] ? 5.81

Same thing, different compound: CCN1C(=O)/C(=C/c2ccc(-c3cccc(C(=O)O)c3)o2)SC1=S [NB179] 5.60

Entry to check: O=C(O)c1cccc(-c2ccc(/C=C3\SC(=S)N(c4ccc(Cl)cc4Cl)C3=O)o2)c1 [NB231] 6.03

For O=C(O)c1cc(-c2ccc(/C=C3\SC(=S)N(CCc4ccccc4)C3=O)o2)ccc1Cl [NB206] then? 6.08
